Target: T1, 4H717-AA
T1 chain: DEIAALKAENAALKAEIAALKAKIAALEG
Assay: two-hybrid library CCmax;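 also: natural log of median RNA to DNA barcode read ratio; higher means stronger binding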
Details: mean of both orientations
Collected interaction score values appear next to each entry.
endpoint_label: interaction score

>>> test_result("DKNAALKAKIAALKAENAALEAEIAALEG [4H3921-AA]")
-1.37
>>> test_result("DEIAALKAEIAALKAENAALKAKIAALEG [4H605-AA]")
-1.23
>>> test_result("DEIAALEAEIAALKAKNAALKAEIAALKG [4H122-AA]")
-1.17
>>> test_result("DKNAALKAKIAALEAEIAALKAKNAALEG [4H3855-AA]")
-1.18
>>> test_result("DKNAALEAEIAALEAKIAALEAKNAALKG [4H3112-AA]")
-1.33
>>> test_result("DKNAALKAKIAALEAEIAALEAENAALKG [4H3844-AA]")
-1.65
>>> test_result("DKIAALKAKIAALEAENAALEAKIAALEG [4H2837-AA]")
-0.861

Reference source: paper PMC10397247
